target: human CYP3A4 (Homo sapiens, UniProt P08684)
Sequence (P08684 whole entry): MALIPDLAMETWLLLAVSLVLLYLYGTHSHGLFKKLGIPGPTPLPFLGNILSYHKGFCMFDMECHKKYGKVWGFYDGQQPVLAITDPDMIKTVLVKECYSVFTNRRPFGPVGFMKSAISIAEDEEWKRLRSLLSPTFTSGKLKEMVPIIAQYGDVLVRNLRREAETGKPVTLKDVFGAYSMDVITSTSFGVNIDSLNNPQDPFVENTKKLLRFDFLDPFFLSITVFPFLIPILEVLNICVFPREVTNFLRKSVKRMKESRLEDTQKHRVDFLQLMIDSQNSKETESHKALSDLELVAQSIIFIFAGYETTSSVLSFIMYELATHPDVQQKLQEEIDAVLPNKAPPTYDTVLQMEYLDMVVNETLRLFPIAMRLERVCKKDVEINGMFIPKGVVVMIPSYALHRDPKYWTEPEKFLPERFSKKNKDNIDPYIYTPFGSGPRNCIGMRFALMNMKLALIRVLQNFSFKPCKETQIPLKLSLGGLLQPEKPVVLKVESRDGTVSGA
READOUT TYPE: IC50

Query block: Item CCCCN(C(=O)Nc1cc(C(N)=O)c(F)cc1F)C1CCN(Cc2ccc(Oc3ccc(C(=O)N4CCN(C(C)=O)CC4)cc3)nc2C)CC1 with human CYP3A4 (Homo sapiens, UniProt P08684) - IC50?
Result block: ≥ 30 µM

====

biological target: human CCR5 (Homo sapiens, UniProt P51681)
Sequence (P51681 whole entry): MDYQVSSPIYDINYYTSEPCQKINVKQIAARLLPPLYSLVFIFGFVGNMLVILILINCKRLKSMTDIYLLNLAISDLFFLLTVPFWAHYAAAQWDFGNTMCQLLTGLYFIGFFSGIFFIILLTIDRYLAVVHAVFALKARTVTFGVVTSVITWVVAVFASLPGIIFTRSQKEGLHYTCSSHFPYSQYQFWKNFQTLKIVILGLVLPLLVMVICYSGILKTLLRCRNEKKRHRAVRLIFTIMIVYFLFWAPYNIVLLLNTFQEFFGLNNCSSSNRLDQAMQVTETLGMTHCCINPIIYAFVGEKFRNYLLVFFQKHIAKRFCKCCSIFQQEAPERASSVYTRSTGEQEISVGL
pIC50: −log10 of the molar value.
READOUT TYPE: pIC50

Query block: Test system human CCR5 (Homo sapiens, UniProt P51681); read-out pIC50; what value for CCCCN(C(=O)Nc1cc(C(N)=O)c(F)cc1F)C1CCN(Cc2ccc(Oc3ccc(C(=O)N(C)C)cc3)nc2C)CC1 ?
Result block: ≥ 7.00

Value source: patent US8003642B2
